FYI, the data here is from PubChem BioAssay (EPA / NIEHS).

Read-out: Vascular cell adhesion molecule 1 (VCAM1), VCAM1 (gene 7412)
EXPERIMENT: BSK_CASM3C_VCAM1: BioMAP Diversity Plus: CASM3C Assay for Vascular cell adhesion molecule 1 (VCAM1) Biomarker Activity (AID 2283055);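 further: VCAM-1 protein level quantified by ELISA on the cells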
COND: primary human coronary artery smooth muscle cells; actives raise or lower the signal
The source made the active and inactive calls. How the source made its calls: active means hit-call score of the fitted dose curve at least 0.9, where 1 is the maximum; inactive means score below 0.9.
Possible outcomes: active, inactive

# SMI, ASSIGNED_LABEL
rows = [
    ("c1ccc2cc3c(ccc4ccccc43)cc2c1", "inactive"),
    ("OC1CCCCC1", "inactive"),
    ("CN1CCC[C@H]1c1cccnc1", "inactive"),
    ("CC1=C(/C=C/C(C)=C/C=C/C(C)=C/C(=O)O)C(C)(C)CCC1", "active"),
    ("CCC(=C(c1ccc(O)cc1)c1ccc(OCCN(C)C)cc1)c1ccccc1", "active"),
    ("O=[N+]([O-])c1ccc(O)cc1", "inactive"),
    ("CC#C[C@]1(O)CC[C@H]2[C@@H]3CCC4=CC(=O)CCC4=C3[C@@H](c3ccc(N(C)C)cc3)C[C@@]21C", "inactive"),
    ("O=C(OCCOCCOC(=O)c1ccccc1)c1ccccc1", "inactive"),
    ("Cc1cc(CCN2CCN(c3nsc4ccccc34)CC2)cc2c1NC(=O)CC2(C)C", "active"),
    ("CCCCCCCCCCCCc1ccccc1S(=O)(=O)O", "active"),
    ("CCCOC(=O)c1ccc(O)cc1", "inactive"),
]

====

Read-out: ATP-citrate lyase (ACLY), ACLY (gene 47)
EXPERIMENT: LTEA_HepaRG_ACLY: Life Technologies and Expression Analysis (LTEA) Assay for ATP-citrate lyase (ACLY) using HepaRG (AID 2283466)
COND: mRNA level, 48 h; actives raise or lower the signal
The source made the active and inactive calls. Rule for the calls: active = hit-call score of the fitted dose curve at least 0.9, where 1 is the maximum; inactive = score below 0.9.
Possible outcomes: active, inactive

# MOLECULE, ASSIGNED_LABEL
data = [
    ("ClC1=C(Cl)C(Cl)(Cl)C(Cl)=C1Cl", "inactive"),
    ("CCCCCCCCCCCCCCCS(=O)(=O)Oc1ccccc1", "inactive"),
    ("O=c1c(-c2ccc(O)cc2)coc2cc(O)ccc12", "inactive"),
    ("CCCCCCCCCCCCN1CCCC1=O", "inactive"),
    ("COC(=O)CCCCC(=O)OC", "inactive"),
    ("CCCCCCCCCCCCc1ccccc1S(=O)(=O)O", "inactive"),
    ("Cc1cc(CCN2CCN(c3nsc4ccccc34)CC2)cc2c1NC(=O)CC2(C)C", "inactive"),
    ("NC(=O)N1C(=O)C(C(=O)c2cc(Cl)cs2)c2cc(F)c(Cl)cc21 (configuration not stated)", "active"),
    ("CCc1ccc(CCOc2ccc(CC3SC(=O)NC3=O)cc2)nc1 (configuration not stated)", "active"),
    ("CCC(=C(c1ccc(O)cc1)c1ccc(OCCN(C)C)cc1)c1ccccc1", "inactive"),
    ("Oc1cccc(O)c1", "inactive"),
    ("CCN(CC)CCNc1ccc(CNC=O)c2sc3ccc(OC)cc3c(=O)c12", "active"),
    ("CC[C@H](c1ccc(O)cc1)[C@@H](CC)c1ccc(O)cc1", "active"),
    ("c1ccc2c(c1)ccc1ccccc12", "inactive"),
    ("CCCCC(CC)COC(=O)CCCCC(=O)OCc1ccccc1 (configuration not stated)", "inactive"),
    ("O=C(O)Cc1cc(I)c(Oc2cc(I)c(O)c(I)c2)c(I)c1", "active"),
    ("OC1CCC(C2CCCCC2)CC1 (configuration not stated)", "inactive"),
    ("CC#C[C@]1(O)CC[C@H]2[C@@H]3CCC4=CC(=O)CCC4=C3[C@@H](c3ccc(N(C)C)cc3)C[C@@]21C", "active"),
    ("CCCCCCC(=O)O", "inactive"),
    ("CCCCOCCO", "inactive"),
    ("CCOC(=O)CC(O)(CC(=O)OCC)C(=O)OCC", "inactive"),
    ("O=[N+]([O-])c1ccc(O)cc1", "inactive"),
    ("CC(C)CCCCCCOC(=O)CCCCC(=O)OCCCCCCC(C)C", "inactive"),
    ("OC1CCCCC1", "inactive"),
    ("Nc1cccc2c(N)cccc12", "inactive"),
    ("OCCC(F)(F)C(F)(F)C(F)(F)C(F)(F)C(F)(F)C(F)(F)F", "inactive"),
    ("CC1=C(/C=C/C(C)=C/C=C/C(C)=C/C(=O)O)C(C)(C)CCC1", "inactive"),
]
